Experiment: NCI Yeast Anticancer Drug Screen. Data for the mlh1 rad18 strain (AID 175)
Conditions: S. cerevisiae mlh1 rad18 strain growth inhibition; at 50.0 µM; stronger effect = higher value
Compounds without any hit were thinned out: in the full panel of roughly 79,000, 15% have a hit.
measured quantity: growth inhibition (%)
The reply should contain only the number, in %.

INPUT: Given the entry CC(=O)CC(=O)c1cc(C(C)=O)c(O)c(C(C)=O)c1 , report its measured growth inhibition.
OUTPUT: 7.8

----------
Assay: NCI Yeast Anticancer Drug Screen. Data for the sgs1 mgt1 strain (AID 161);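 note: 0% = growth of cultures given vehicle only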
Conditions: S. cerevisiae sgs1 mgt1 strain, at 50.0 µM, stronger effect = higher value
The panel holds about 79,000 compounds, 15% with a hit somewhere; the sample as a whole holds those more often. The source made the active and inactive calls. No stated cut-off is given here; in the data, active means growth inhibition above about 70%; inactive means the rest.
Parameter: growth inhibition. Scope: all listed entries.

Solved entries:
compound | experimental result
O=C1CCCNn2c(nc3ncccc3c2=O)N1 | 9% (inactive)
COc1ccc(C(C#N)N(C)C)cc1OC (stereo not given) | 8% (inactive)
COc1cccc[n+]1C | -2.15% (inactive)
O=C(O)CC(Cc1ccccc1)C(=O)O (stereo not given) | -26.1% (inactive)

Read the next record carefully.
INPUT: Quick one: growth inhibition for CC(CCl)CC#N (stereo not given) ?
OUTPUT: 7.9% (inactive)
